From: patent US20240325555A1

Assay target: T1, human LIV-1 (human, UniProt Q13433 29-755)
T1 sequence (looked up): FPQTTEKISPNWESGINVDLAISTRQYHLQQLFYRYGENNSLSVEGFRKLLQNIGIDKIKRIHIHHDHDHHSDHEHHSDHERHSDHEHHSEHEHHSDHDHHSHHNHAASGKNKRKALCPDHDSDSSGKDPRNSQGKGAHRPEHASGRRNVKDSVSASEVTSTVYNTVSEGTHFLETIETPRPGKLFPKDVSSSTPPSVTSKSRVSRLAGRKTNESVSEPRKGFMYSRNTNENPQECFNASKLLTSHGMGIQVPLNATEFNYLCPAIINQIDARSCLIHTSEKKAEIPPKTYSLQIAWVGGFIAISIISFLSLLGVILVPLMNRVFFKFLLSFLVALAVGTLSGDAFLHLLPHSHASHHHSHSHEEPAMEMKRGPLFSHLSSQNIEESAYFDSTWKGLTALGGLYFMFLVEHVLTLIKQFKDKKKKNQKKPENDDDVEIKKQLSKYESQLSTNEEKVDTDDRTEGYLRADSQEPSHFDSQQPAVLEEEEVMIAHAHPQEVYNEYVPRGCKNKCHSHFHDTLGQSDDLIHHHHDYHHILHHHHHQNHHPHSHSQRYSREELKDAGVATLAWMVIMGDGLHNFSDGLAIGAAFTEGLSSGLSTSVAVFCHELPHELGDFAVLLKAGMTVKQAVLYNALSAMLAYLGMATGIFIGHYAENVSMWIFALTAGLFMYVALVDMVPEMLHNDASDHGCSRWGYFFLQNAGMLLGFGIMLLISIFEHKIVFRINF
Experiment description: cell-based or functional assay
Readout label: Bottom (% viability), BT20/H_LIV1-High expression

Request: Recorded Bottom (% viability), BT20/H_LIV1-High expression for LM-001-LM-D01 (antibody, V domains shown, LM-D01 drug-linker conjugated; site and chain not stated) VH: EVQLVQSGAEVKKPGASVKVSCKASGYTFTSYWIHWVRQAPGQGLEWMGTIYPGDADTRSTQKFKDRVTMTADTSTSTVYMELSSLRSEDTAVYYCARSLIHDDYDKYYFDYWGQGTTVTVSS VL: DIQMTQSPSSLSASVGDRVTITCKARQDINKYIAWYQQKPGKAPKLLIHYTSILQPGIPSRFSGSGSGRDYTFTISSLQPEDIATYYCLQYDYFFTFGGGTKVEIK , please?
Result: 37.9%
